Experiment: Selectivity index, ratio of IC50 for phytohemagglutininin-activated-PBMC to IC50 for Leishmania amazonensis MHOM/BR/1987/BA promastigotes
Assay type: functional
Below, each of the molecules is paired with its reported Ratio IC50 value.
Respond with the number and no other words.

Use these answered entries as a reference point.
CCC/C=C/c1nc2cc(OC)ccc2n2cccc12 = 6.7
CCCCC#Cc1nc2ccccc2n2cccc12 = 1.4
CCC/C=C/c1nc2ccccc2n2cccc12 = 10.4

Proceeding to the next molecule to report its Ratio IC50.
Query: Name the recorded Ratio IC50 of the molecule listed here: C=Cc1nc2ccccc2n2cccc12
Response: 0.3

* * *

Experiment: Partition coefficient, log D at pH 7.4
Condition Set: octanol/water
Categories are defined by ranges of logD, namely LOW: < 3; MEDIUM: ≥ 3 and < 4; HIGH: ≥ 4

These solved cases illustrate the format of a correct answer.
CCCCC#Cc1nc2cc(OC)ccc2n2cccc12 = HIGH
CCCc1nc2ccccc2n2cccc12 = MEDIUM
C/C=C\c1nc2ccccc2n2cccc12 = MEDIUM

Query: Lab log: CCCCCc1nc2cc(OC)ccc2n2cccc12 — assign logD category
Response: HIGH

Query: Lab log: C[C@H]1O[C@H]1c1nc2ccccc2n2cccc12 (relative stereo) — assign logD category
Response: LOW

Query: Lab log: c1ccc2c(c1)nc(CCc1ccc3c(c1)OCO3)c1cccn12 — assign logD category
Response: MEDIUM

Query: Lab log: CCCc1nc2cc(OC)ccc2n2cccc12 — assign logD category
Response: MEDIUM

Query: Lab log: C/C=C/c1nc2cc(OC)ccc2n2cccc12 — assign logD category
Response: MEDIUM

* * *

Experiment: Selectivity index, ratio of IC50 for phytohemagglutininin-activated-PBMC to IC50 for Leishmania amazonensis MHOM/BR/1987/BA promastigotes
Assay type: functional
Below, each of the compounds is paired with its reported Ratio IC50 value.

Use these answered entries as a reference point.
COc1ccc(CCc2nc3ccccc3n3cccc23)cc1OC = >3.3
C(=C\c1nc2ccccc2n2cccc12)/c1ccccc1 = >2.9

Proceeding to the next compound to report its Ratio IC50.
Query: Name the recorded Ratio IC50 of the compound listed here: C/C=C/c1nc2ccc(OC)cc2n2cccc12
Response: 5

* * *

Experiment: Partition coefficient, log D at pH 7.4
Condition Set: octanol/water
Result Type: logD
Respond with the number and no other words.

Use these answered entries as a reference point.
CCCCCc1nc2ccccc2n2cccc12 = 4.04
C=Cc1nc2ccccc2n2cccc12 = 3.08
CCCCC#Cc1nc2ccccc2n2cccc12 = 4.36
COc1ccc(CCc2nc3ccccc3n3cccc23)cc1OC = 2.97
C(=C\c1nc2ccccc2n2cccc12)/c1ccccc1 = 4.84
C/C=C/c1ccc2ccccc2n1 = 2.23
C1=C(c2nc3ccccc3n3cccc23)CCCC1 = 4.12
C/C=C/c1nc2ccccc2n2cccc12 = 3.44

Query: Name the recorded logD of the molecule listed here: CCC/C=C/c1nc2ccc(OC)cc2n2cccc12
Response: 4.3

Query: Name the recorded logD of the molecule listed here: C/C=C/c1nc2ccc(OC)cc2n2cccc12
Response: 3.48

Query: Name the recorded logD of the molecule listed here: CCC/C=C/c1nc2ccccc2n2cccc12
Response: 4.44

* * *

Experiment: Partition coefficient, log D at pH 7.4
Condition Set: octanol/water
Result Type: logD

C[C@@H]1O[C@H]1c1nc2ccccc2n2cccc12 (relative stereo) = 2.61
CCC/C=C/c1nc2cc(OC)ccc2n2cccc12 = 4.52

Proceeding to the next molecule to report its logD.
Query: Name the recorded logD of the molecule listed here: c1ccc(-c2nc3ccccc3n3cccc23)cc1
Response: 3.6
